Target: Ileal sodium/bile acid cotransporter (Homo sapiens, UniProt Q12908)
Sequence (Q12908 whole entry): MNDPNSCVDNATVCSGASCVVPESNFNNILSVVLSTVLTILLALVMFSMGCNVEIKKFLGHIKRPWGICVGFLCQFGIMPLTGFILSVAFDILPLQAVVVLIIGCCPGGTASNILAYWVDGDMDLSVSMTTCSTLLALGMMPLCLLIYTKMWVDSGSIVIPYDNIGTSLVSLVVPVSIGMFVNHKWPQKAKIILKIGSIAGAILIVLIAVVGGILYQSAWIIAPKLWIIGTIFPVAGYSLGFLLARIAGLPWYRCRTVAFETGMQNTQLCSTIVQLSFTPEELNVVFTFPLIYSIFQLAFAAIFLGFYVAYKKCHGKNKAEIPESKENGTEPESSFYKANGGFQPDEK
Assay: In vitro inhibition of ASBT mediated uptake of [14C]taurocholate (5 uM) in Baby hamster cells expressing human IBAT
pIC50: −log10 of the molar value.
Kind request: treat 7 as inclusive, so pIC50 at 7 or higher is fulfilled, anything lower is not fulfilled.

Lookup: hey, is pIC50 for this one >= 7? `CCCCC1(CCCC)CS(=O)(=O)c2ccc(C)cc2[C@@H](c2ccc(F)cc2)[C@H]1O`
Found: fulfilled

Lookup: Entry to check: `CC1(C)CS(=O)(=O)c2ccc(N)cc2[C@@H](c2ccccc2)[C@H]1O`
Found: not fulfilled

Lookup: Can you handle `CCCCC1(CCCC)CS(=O)(=O)c2ccc(OC)cc2[C@@H](c2ccc(F)cc2)[C@H]1O` next?
Found: fulfilled

Lookup: And for `CCCCCCNc1ccc2c(c1)[C@@H](c1ccccc1)[C@@H](O)[C@](CC)(CCCC)CS2(=O)=O` ?
Found: not fulfilled

Lookup: Please do the same for `CCCCCC(=O)Nc1ccc2c(c1)[C@@H](c1ccccc1)[C@@H](O)[C@](CC)(CCCC)CS2(=O)=O` as well.
Found: not fulfilled

Lookup: What about this molecule? `CCCCCC1(CCCCC)CS(=O)(=O)c2ccc(C)cc2[C@@H](c2ccc(F)cc2)[C@H]1O`
Found: not fulfilled

Lookup: Could you do the same for `CCCC[C@]1(CC)CS(=O)(=O)c2ccc(N(C)C)cc2[C@@H](c2ccccc2)[C@H]1O` , please?
Found: fulfilled
